# assayed_system: IκBα ubiquitinating enzyme (SCF complex: ROC1, Cullin1, Skp1, His-TrCP1; with E1, UbcH5b) (Homo sapiens, UniProt P62877+P63208+Q13616+Q9Y297)
# Construct: His (polyhistidine); made in house; host or cells: insect cells (baculovirus) for the SCF complex and His-E1; E. coli for His-UBCH5b
# Sequence (Q9Y297 whole entry): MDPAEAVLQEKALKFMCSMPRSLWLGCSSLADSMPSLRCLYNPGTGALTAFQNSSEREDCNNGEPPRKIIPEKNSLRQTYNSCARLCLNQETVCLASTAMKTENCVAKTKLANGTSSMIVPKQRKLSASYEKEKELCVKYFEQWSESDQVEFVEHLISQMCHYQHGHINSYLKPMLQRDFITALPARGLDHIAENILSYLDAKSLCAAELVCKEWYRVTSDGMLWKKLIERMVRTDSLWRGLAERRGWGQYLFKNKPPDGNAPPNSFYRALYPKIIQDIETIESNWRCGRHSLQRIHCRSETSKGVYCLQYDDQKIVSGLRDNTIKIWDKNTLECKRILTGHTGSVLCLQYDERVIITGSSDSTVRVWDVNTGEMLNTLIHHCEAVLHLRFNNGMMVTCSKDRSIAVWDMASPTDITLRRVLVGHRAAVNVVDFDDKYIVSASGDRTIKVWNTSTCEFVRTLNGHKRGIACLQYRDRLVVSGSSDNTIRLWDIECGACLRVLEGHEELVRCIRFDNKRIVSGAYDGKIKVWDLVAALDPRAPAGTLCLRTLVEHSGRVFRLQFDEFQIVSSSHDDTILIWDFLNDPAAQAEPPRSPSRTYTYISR
# Sequence (Q13616 whole entry): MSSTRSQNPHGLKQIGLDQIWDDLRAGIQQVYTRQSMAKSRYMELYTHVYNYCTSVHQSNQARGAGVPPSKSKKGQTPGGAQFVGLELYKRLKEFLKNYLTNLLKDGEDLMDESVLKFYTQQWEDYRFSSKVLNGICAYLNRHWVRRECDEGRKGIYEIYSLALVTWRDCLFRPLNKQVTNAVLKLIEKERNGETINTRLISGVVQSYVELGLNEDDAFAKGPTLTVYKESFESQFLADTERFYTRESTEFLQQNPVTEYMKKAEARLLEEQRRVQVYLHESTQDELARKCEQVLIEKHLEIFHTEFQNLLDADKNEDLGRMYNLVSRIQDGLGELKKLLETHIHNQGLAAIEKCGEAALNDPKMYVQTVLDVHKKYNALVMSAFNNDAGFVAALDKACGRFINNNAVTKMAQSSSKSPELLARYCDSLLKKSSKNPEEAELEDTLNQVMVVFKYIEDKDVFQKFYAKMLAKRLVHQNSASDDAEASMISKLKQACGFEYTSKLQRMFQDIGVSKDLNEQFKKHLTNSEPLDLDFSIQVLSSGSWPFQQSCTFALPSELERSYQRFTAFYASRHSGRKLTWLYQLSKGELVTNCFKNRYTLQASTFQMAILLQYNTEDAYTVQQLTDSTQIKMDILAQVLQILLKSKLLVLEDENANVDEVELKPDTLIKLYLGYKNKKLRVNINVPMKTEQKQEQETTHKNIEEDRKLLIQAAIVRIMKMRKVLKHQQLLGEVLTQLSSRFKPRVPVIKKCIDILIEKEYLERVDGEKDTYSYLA
# Sequence (P63208 whole entry): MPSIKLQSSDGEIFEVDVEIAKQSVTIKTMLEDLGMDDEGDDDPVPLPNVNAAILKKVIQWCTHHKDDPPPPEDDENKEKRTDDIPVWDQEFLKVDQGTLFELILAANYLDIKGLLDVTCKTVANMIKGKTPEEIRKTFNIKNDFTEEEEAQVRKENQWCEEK
# Sequence (P62877 whole entry): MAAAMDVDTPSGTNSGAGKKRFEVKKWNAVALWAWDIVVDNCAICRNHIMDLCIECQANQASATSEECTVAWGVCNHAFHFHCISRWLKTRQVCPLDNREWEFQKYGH
# assay_name: Measurement of ubiquitinating enzyme activity (IκBα ubiquitination, time-resolved fluorescence with Eu(K)-labeled ubiquitin and XL665-labeled anti-GST antibody)
# Type: biochemical
# measurement_setup: enzyme activity inhibition test, method (1), Table 5; read-out: EVALUATION
pIC50: −log10 of the molar value.
reported_endpoint: pIC50

INSERT INTO results (compound, recorded_value) VALUES
  ('CC1=NN(c2ccc(S(N)(=O)=O)cc2)C(=O)/C1=C\c1ccc2cc[nH]c2c1 [Compound 148]', '> 5.00'),
  ('COc1cc(/C=C2/C(=O)N(c3ccccc3F)N=C2C)ccc1O [Compound 197]', '> 4.40'),
  ('O=C(O)c1ccc(N2N=C(c3ccoc3)/C(=C/c3ccc(-c4cnn(Cc5ccccc5)c4)o3)C2=O)cc1 [Compound 492]', '> 5.00'),
  ('CCCCC1=NN(c2ccc(C(=O)O)cc2)C(=O)/C1=C\c1ccc(CO)o1 [Compound 300]', '> 5.00'),
  ('O=C(O)c1cccc(N2N=C(Cc3ccccc3)/C(=C/c3ccc(-c4ccccc4F)o3)C2=O)c1 [Compound 519]', '4.70 to 5.00'),
  ('CC1=NN(c2ccc(C(=O)N(C)C)cc2)C(=O)/C1=C\c1ccc2[nH]ccc2c1 [Compound 363]', '4.70 to 5.00'),
  ('O=C(O)c1ccc(N2N=C(C3CC3)/C(=C/c3ccc(-n4cccn4)cc3)C2=O)cc1 [Compound 322]', '> 5.00'),
  ('CCCCC1=NN(c2ccc(C(=O)O)cc2)C(=O)/C1=C\c1ccc(-n2cncn2)cc1 [Compound 306]', '4.70 to 5.00');
